system: anti-hTNF mAb 210; test: Loop-loop 15-mer Matrix-scan of hTNF loop-peptides with mAb 210; assay type: binding; conditions: mAb 210 10 ug/ml
Ends that are not written are not given here. * marks the point of attachment. code + = amino-terminal bromo-group; nBu = CCCC*
Readout Type: labeling of squares (firstly coupled loop-peptides)

1. +SYQTKVNLLSAIKSZ ({code +}-SYQTKVNLLSAIKSX; not fully specified (residue 15); printed as +SYQTKVNLLSAIKSZ; also: N- and C-terminal linker/cyclisation residues) [Sq-87, 15-mer hTNF loop-peptide] | Identified
2. +LLSAIKSPCQRETPZ ({code +}-LLSAIKSPCQRETPC(nBu)) [Peptide-94, 15-mer hTNF loop-peptide] | Identified
3. +GQGCPSTHVLLTHTZ ({code +}-GQGCPSTHVLLTHTX; not fully specified (residue 15); printed as +GQGCPSTHVLLTHTZ; also: N- and C-terminal linker/cyclisation residues) [Sq-67, 15-mer hTNF loop-peptide] | clearly labeled
4. +KGQGCPSTHVLLTHZ ({code +}-KGQGCPSTHVLLTHX; not fully specified (residue 15); printed as +KGQGCPSTHVLLTHZ; also: N- and C-terminal linker/cyclisation residues) [Sq-66, 15-mer hTNF loop-peptide] | clearly labeled

Attribution: patent US20120190564A1
